B1: OAS1 (parent)
chain: TPAKSLDKFIEDYLLPDTCFRMQI

variants of: B1; assay: protein stability index of a GFP-peptide fusion (GPS, HEK-293T) (PSI 1-6); higher = more stable; conditions: c terminus: a fixed tail appended;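 note: lentivirally expressed fusions sorted by FACS into six bins by GFP to DsRed ratio, PSI derived from sequencing read proportions per bin multiplied by bin number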
Class field: derived from protein stability index; ranges low-valued (below 2), mid-valued (2 to below 3), high-valued (3 or more)

Enquiry: Lab log: R21W — assign protein stability index category
Return: low-valued

Enquiry: Moving on to K4F
Return: mid-valued

Enquiry: Moving on to T1G
Return: high-valued

Enquiry: Moving on to P2V
Return: low-valued

Enquiry: Moving on to S5T
Return: mid-valued

Enquiry: Moving on to T18C
Return: high-valued

Enquiry: Moving on to L14N
Return: high-valued

Enquiry: Moving on to F9S
Return: mid-valued

Enquiry: Moving on to I10F
Return: high-valued

Enquiry: Moving on to E11T
Return: mid-valued

Enquiry: Moving on to M22R
Return: low-valued

Enquiry: Moving on to I10T
Return: mid-valued

Enquiry: Moving on to I24S
Return: low-valued

Enquiry: Moving on to I24P
Return: mid-valued

Enquiry: Moving on to K4W
Return: high-valued

Enquiry: Moving on to L15A
Return: low-valued

Enquiry: Moving on to D17F
Return: high-valued

Enquiry: Moving on to F20C
Return: mid-valued

Enquiry: Moving on to K8N
Return: mid-valued

Enquiry: Moving on to I24G
Return: low-valued

Enquiry: Moving on to F20H
Return: low-valued

Enquiry: Moving on to L15T
Return: low-valued

Enquiry: Moving on to L6M
Return: mid-valued

Enquiry: Moving on to I10Q
Return: low-valued

Enquiry: Moving on to S5Q
Return: mid-valued

Enquiry: Moving on to K8D
Return: mid-valued

Enquiry: Moving on to A3P
Return: mid-valued

Enquiry: Moving on to P16C
Return: mid-valued

Enquiry: Moving on to F20M
Return: high-valued

Enquiry: Moving on to F20W
Return: high-valued

Enquiry: Moving on to Y13N
Return: low-valued

Enquiry: Moving on to D7Y
Return: mid-valued

Enquiry: Moving on to A3I
Return: high-valued

Enquiry: Moving on to C19V
Return: high-valued

Enquiry: Moving on to F20L
Return: mid-valued

Enquiry: Moving on to A3G
Return: high-valued

Enquiry: Moving on to D17L
Return: high-valued
